# Test system: MCF7
# Assay Protocol: Antiproliferative activity against Homo sapiens (human) MCF7 cells after 72 hr by SRB assay
# Assay type: functional
# Condition Details: MCF7, 72 h, read-out: ID50 (the source's name)
// values below are reported IC50

# Compound, IC50 (µg/mL)
rows = [
    ("COc1cc(O)c(CC=C(C)C)c(O)c1C(=O)/C=C/c1ccc(O)cc1 [XANTHOHUMOL]", 4.7),
    ("CC(C)=CCc1c(O)cc(O)c2c1OC(c1ccc(O)cc1)CC2=O (centres undefined) [SOPHORAFLAVANONE B]", 19.4),
    ("CCCCCOc1ccc([C@@H]2CC(=O)c3c(OC)cc(OCCCCC)c(CC=C(C)C)c3O2)cc1 [7,4'-DI-O-N-PENTYL-8-ISOXANTHOHUMOL]", 7.1),
    ("CC(=O)Oc1ccc(C2CC(=O)c3c(O)cc(OC(C)=O)c(CC=C(C)C)c3O2)cc1 (centres undefined) [7,4'-DI-O-ACETYL-8-PRENYLNARINGENIN]", 28),
]
